system: 786-O (renal cell carcinoma) cells; assay: Cell viability (CellTiter Glo) assay, inhibition of 786-O cell proliferation; assay type: cell-based; conditions: Homo sapiens, 786-0; 786-O cells, 72 hours, CellTiter Glo; read-out: IC50, inhibition of 786-O cell proliferation
pIC50: −log10 of the molar value.
Listed below: pIC50 values for each entry.
reported-metric: pIC50

>>> value_observed("CC(C)N(CC(F)(F)F)C(=N)OCc1ncc2c(n1)N(c1cccc(OC3CCOCC3)c1)CC21CC1")
"5.30 to 6.30"
>>> value_observed("CCCCC1Cc2c([nH]c3ccccc23)C(c2ccc(F)cc2)N1C(=O)COC(=N)N1CCN(CC)C(=O)C12CC2 (centres unmarked)")
"5.30 to 6.30"
>>> value_observed("CNc1nc(COC(=N)N2CCC[C@@H]2C(F)(F)F)nc2c1C(C)(C)C(=O)N2c1ccc2c(c1)CCCO2")
"> 7.00"
>>> value_observed("CC(C)N(CC(F)(F)F)C(=N)OCc1ncc2c(n1)N(c1ccc(C3CCCCC3)cc1)C(=O)C21CC1")
"6.30 to 7.00"
>>> value_observed("N=C(OCc1nc2c(c(C(F)(F)F)n1)C1(CCCC1)C(=O)N2c1ccc(N2CCOCC2)cc1)N1CCC[C@@H]1C(F)(F)F")
"5.30 to 6.30"
>>> value_observed("CN(C)C(=N)OCc1nccc(Nc2ccc(Oc3ccccc3)cc2)n1")
"5.30 to 6.30"
>>> value_observed("N=C(OCc1nc(NC2CC2)c2c(n1)N(c1ccc(F)c(F)c1)C(=O)C21CCCC1)N1CCC[C@@H]1C(F)(F)F")
"> 7.00"
>>> value_observed("CNc1nc(COC(=N)N2CCC[C@@H]2C(F)(F)F)nc2c1C1(CCCC1)C(=O)N2c1cnc(C2=CCOCC2)nc1")
"> 7.00"
>>> value_observed("CC(C)N(CC(F)(F)F)C(=N)OCc1ncc2c(n1)N(c1ccc(N3CCOCC3)nc1)C(=O)C21CC1")
"5.30 to 6.30"
>>> value_observed("CC(C)N(CC(F)(F)F)C(=N)OCc1ncc2c(n1)N(c1cccc(Oc3ccccc3)c1)CC21CC1")
"5.30 to 6.30"
>>> value_observed("CNc1nc(COC(=N)N2CCC[C@@H]2C(F)(F)F)nc2c1C(C)(C)CN2c1ccc(N2C[C@@H](C)O[C@@H](C)C2)nc1")
"> 7.00"
>>> value_observed("CNc1nc(COC(=N)N2CCC[C@@H]2C(F)(F)F)nc2c1C1(CCCC1)C(=O)N2c1cnc(C2CCOCC2)nc1")
"5.30 to 6.30"
>>> value_observed("CS(=O)(=O)c1ccc(N2C(=O)C3(CCCC3)c3c(N)nc(COC(=N)N4CCC[C@@H]4C(F)(F)F)nc32)cc1")
"6.30 to 7.00"
>>> value_observed("C[C@@H]1CN(c2ncc(N3C(=O)C4(CCCC4)c4c(N)nc(COC(=N)N5CCC[C@@H]5C(F)(F)F)nc43)cn2)C[C@H](C)O1")
"> 7.00"
